target: 5-HT2A receptor (Homo sapiens); construct: host or cells: HEK293; assay: biochemical; format: binding; details: 1 nM [^3H]ketanserin, HEK293 stable cell line; read-out: 5-HT2A Receptor Ki (nM) ([^3H]ketanserin)
Sequence (P28223 whole entry): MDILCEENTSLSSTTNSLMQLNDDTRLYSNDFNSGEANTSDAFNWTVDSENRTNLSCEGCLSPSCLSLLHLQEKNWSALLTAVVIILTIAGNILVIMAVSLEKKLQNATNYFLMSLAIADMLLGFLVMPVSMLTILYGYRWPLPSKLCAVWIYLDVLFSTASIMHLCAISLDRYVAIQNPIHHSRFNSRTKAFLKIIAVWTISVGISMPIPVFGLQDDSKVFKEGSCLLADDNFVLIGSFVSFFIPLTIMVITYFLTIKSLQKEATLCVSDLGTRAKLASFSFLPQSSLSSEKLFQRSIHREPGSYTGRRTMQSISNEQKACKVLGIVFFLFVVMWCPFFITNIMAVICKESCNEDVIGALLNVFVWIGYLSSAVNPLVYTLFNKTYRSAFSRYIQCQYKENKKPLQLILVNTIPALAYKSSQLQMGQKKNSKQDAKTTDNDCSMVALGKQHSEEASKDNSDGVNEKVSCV
# reported Ki; entries follow
The figure you give is taken to be in nM; do not add the unit.

Solved cases (8 shown):
| Molecule | Target of assay | Endpoint unit | Ki |
| --- | --- | --- | --- |
| CCCN1C[C@H](C(=O)N(CC)CC)C=C2c3cccc4[nH]c(Br)c(c34)C[C@H]21 [Compound 9] | 5-HT2A receptor (Homo sapiens) | nM | 1.11 |
| CCC[C@@H](C)NC(=O)[C@@H]1C=C2c3cccc4[nH]cc(c34)C[C@H]2N(C)C1 [Int17] | 5-HT2A receptor (Homo sapiens) | nM | 0.41 |
| CCN(CC)C(=O)[C@H]1C=C2c3cccc4[nH]cc(c34)C[C@H]2N(CCCF)C1 [Compound 2a] | 5-HT2A receptor (Homo sapiens) | nM | 115 |
| CCN(CC)C(=O)[C@@H]1C=C2c3cccc4[nH]cc(c34)C[C@H]2N(Cc2ccc(OC)cc2)C1 [Compound 19] | 5-HT2A receptor (Homo sapiens) | nM | 5.58 |
| CCCN1C[C@H](C(=O)NC(CC)CC)C=C2c3cccc4[nH]cc(c34)C[C@H]21 [Compound 6] | 5-HT2A receptor (Homo sapiens) | nM | 1.16 |
| CCCN1C[C@H](C(=O)N[C@H](C)CC)C=C2c3cccc4[nH]cc(c34)C[C@H]21 [Compound 3] | 5-HT2A receptor (Homo sapiens) | nM | 1.36 |
| CC[C@@H](C)NC(=O)[C@H]1C=C2c3cccc4[nH]cc(c34)C[C@H]2N(CC)C1 [Compound 5a] | 5-HT2A receptor (Homo sapiens) | nM | 74.5 |
| CCC(CC)NC(=O)[C@H]1C=C2c3cccc4[nH]cc(c34)C[C@H]2N(C)C1 [Int14a] | 5-HT2A receptor (Homo sapiens) | nM | 56.2 |

Task: Any idea what its Ki is? The molecule is CCN(CC)C(=O)[C@@H]1C=C2c3cccc4[nH]cc(c34)C[C@H]2N(Cc2ccccn2)C1 [Compound 22]
Output: 28.4

Task: Return reported Ki; argument: CC[C@@H](C)NC(=O)[C@@H]1C=C2c3cccc4[nH]cc(c34)C[C@H]2N(C)C1 [Int8]
Output: 1.07

Task: Fill in the blank: the reported Ki of C[C@H]1C[C@H](C)N1C(=O)[C@@H]1C=C2c3cccc4[nH]cc(c34)C[C@H]2N(CCCF)C1 [Compound 26] is ____.
Output: 11.3

Task: Need Ki, item CCN(CC)C(=O)[C@@H]1C=C2c3cccc4[nH]cc(c34)C[C@H]2N(CCCF)C1 [Compound 2]
Output: 2.79

Task: Requested field: Ki. Item: CCN(CC)C(=O)[C@@H]1C=C2c3cccc4[nH]cc(c34)C[C@H]2N(Cc2cccc(OC)c2)C1 [Compound 18]
Output: 3.41

Task: Quick one: Ki of CCCN1C[C@H](C(=O)N2[C@@H](C)C[C@@H]2C)C=C2c3cccc4[nH]cc(c34)C[C@H]21 [Compound 4] ?
Output: 3.07

Task: Give the measured Ki of CCN(CC)C(=O)[C@@H]1C=C2c3cccc4c3C(CN4)C[C@H]2N(C)C1 (mixture of isomers) [Compound 37] .
Output: 11.4
